Biological target: human IL-6 (human, UniProt P05231 30-212)
Sequence (P05231 30-212 limits assumed): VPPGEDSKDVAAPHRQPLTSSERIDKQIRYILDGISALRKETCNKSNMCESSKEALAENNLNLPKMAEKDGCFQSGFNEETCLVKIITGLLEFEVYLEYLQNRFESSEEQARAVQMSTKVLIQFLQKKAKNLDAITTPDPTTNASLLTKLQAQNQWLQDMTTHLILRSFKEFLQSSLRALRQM
Assay: SPR (Biacore), supernatant antibody on Protein A chip, IL-6 flowed, 37 C
Description: Antibodies were captured on a Protein A chip (GE) by injecting 1:20 cell supernatant dilutions at 10 μL/min for 60 seconds. […] The sensor chip was regenerated by a 60 seconds injection of 10 mM Glycine pH 1.7 at the flow rate of 50 μL/min. […] For this setup, 1 μg/mL of purified antibody was injected over a Protein A chip at 10 μL/min for 25 seconds. […] The sensor chip was regenerated by a 60 seconds injection of 10 mM Glycine pH 1.7 at flow rate of 50 μL/min. […]

Binder | koff / s⁻¹
anti-IL-6 antibody, heavy chain T65R, G66D / light chain M32L, M50D, N52S, M88Q (antibody, human IgG1, V domains shown, Human IgG1) VH: EVQLVESGGGLVQPGGSLRLSCAASGFTFSPFAMSWVRQAPGKGLEWVAKISPGGSWTYYSDTVRDRFTFSLDTSKSTAYLQMNSLRAEDTAVYYCARQLWGYYALDIWGQGTLVTVSS VL: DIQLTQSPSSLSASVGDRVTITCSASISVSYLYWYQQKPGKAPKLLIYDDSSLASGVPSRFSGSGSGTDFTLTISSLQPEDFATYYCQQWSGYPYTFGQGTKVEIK | 0.000532
anti-IL-6 antibody, heavy chain S35W, G66D / light chain M32L, M50D, N52S, M88Q (antibody, human IgG1, V domains shown, Human IgG1) VH: EVQLVESGGGLVQPGGSLRLSCAASGFTFSPFAMWWVRQAPGKGLEWVAKISPGGSWTYYSDTVTDRFTFSLDTSKSTAYLQMNSLRAEDTAVYYCARQLWGYYALDIWGQGTLVTVSS VL: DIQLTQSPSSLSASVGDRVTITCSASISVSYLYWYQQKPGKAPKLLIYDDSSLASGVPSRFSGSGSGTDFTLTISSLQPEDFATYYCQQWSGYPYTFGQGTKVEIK | 0.00591
anti-IL-6 antibody, heavy chain I51D, G66D / light chain M32L, M50D, N52S, M88Q (antibody, human IgG1, V domains shown, Human IgG1) VH: EVQLVESGGGLVQPGGSLRLSCAASGFTFSPFAMSWVRQAPGKGLEWVAKDSPGGSWTYYSDTVTDRFTFSLDTSKSTAYLQMNSLRAEDTAVYYCARQLWGYYALDIWGQGTLVTVSS VL: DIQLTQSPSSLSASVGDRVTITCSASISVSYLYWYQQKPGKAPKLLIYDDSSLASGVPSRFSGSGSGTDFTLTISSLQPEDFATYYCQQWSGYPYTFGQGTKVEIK | 0.00799
anti-IL-6 antibody, heavy chain I51T, G66D / light chain M32L, M50D, N52S, M88Q (antibody, human IgG1, V domains shown, Human IgG1) VH: EVQLVESGGGLVQPGGSLRLSCAASGFTFSPFAMSWVRQAPGKGLEWVAKTSPGGSWTYYSDTVTDRFTFSLDTSKSTAYLQMNSLRAEDTAVYYCARQLWGYYALDIWGQGTLVTVSS VL: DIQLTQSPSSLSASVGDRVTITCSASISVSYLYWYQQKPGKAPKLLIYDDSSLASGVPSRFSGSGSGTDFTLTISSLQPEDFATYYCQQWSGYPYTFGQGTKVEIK | 0.000478
anti-IL-6 antibody, heavy chain T65E, G66D / light chain M32L, M50D, N52S, M88Q (antibody, human IgG1, V domains shown, Human IgG1) VH: EVQLVESGGGLVQPGGSLRLSCAASGFTFSPFAMSWVRQAPGKGLEWVAKISPGGSWTYYSDTVEDRFTFSLDTSKSTAYLQMNSLRAEDTAVYYCARQLWGYYALDIWGQGTLVTVSS VL: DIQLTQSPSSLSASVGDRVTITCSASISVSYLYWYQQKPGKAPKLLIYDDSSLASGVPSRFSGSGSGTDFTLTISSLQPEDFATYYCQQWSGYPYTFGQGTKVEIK | 0.000474
